- System: DLD1 NRF2-WT
- assayComment: drug sensitivity score (DSS) cytotoxicity (DSS score); higher = more toxic; extreme values may be limits of the assay
- testConditions: 72 h; CellTox Green cytotoxicity
Items are presented alongside their recorded drug sensitivity score.
observedProperty: drug sensitivity score

compoundStructure	readoutNumber
Cc1cc(Nc2nc(N[C@@H](C)c3ncc(F)cn3)ncc2Cl)[nH]n1	0
O=c1[nH]c(=O)n([C@H]2C[C@H](O)[C@@H](CO)O2)cc1F	0
CON(C)C(=O)N1N=C(c2cc(F)ccc2F)S[C@@]1(CCCN)c1ccccc1	5.3
Cc1ccc(C(=O)Nc2ccc(Oc3cc4cnn(C)c4cc3-c3cn[nH]c3)c(F)c2)c(=O)n1-c1ccc(F)cc1	0

###

- System: DLD1 NRF2-GOF
- assayComment: drug sensitivity score (DSS) cytotoxicity (DSS score); higher = more toxic; extreme values may be limits of the assay
- testConditions: 72 h; CellTox Green cytotoxicity
Items are presented alongside their recorded drug sensitivity score.

molecule	drug sensitivity score
FC(F)(F)c1ccc(/C=C/c2nc(COc3ccc(CCCCn4ccnn4)cc3)co2)cc1	0
CCCCCOC(=O)Nc1nc(=O)n([C@@H]2O[C@H](C)[C@@H](O)[C@H]2O)cc1F	0
CC1(C)OCCn2c1nc1c(N3CCOCC3)nc(-c3cnc(N)nc3)nc12	0.3
COc1cc(N2CCC(N3CCN(C)CC3)CC2)ccc1Nc1ncc(Cl)c(Nc2ccccc2P(C)(C)=O)n1	0
COc1cc2c(NC3CCN(C(C)C)CC3)nc(C3CCCCC3)nc2cc1OCCCN1CCCC1	0
O=C(/C=C\n1cnc(-c2cc(C(F)(F)F)cc(C(F)(F)F)c2)n1)NNc1ccccn1 [Verdinexor]	0
Cn1nnc2c(C(N)=O)ncn2c1=O [Temozolomide]	0
CN(C)C[C@@H]1CCn2cc(c3ccccc32)C2=C(C(=O)NC2=O)c2cn(c3ccccc23)CCO1	0.2
Cn1cnc2c(F)c(Nc3ccc(Br)cc3Cl)c(C(=O)NOCCO)cc21	0
CCc1nc(C(N)=O)c(Nc2ccc(N3CCC(N4CCN(C)CC4)CC3)c(OC)c2)nc1NC1CCOCC1	0
CC[C@@]1(O)C(=O)OCc2c1cc1n(c2=O)Cc2cc3c(CN(C)C)c(O)ccc3nc2-1	1.9
Nc1ccn([C@@H]2O[C@H](CO)[C@@H](O)[C@@H]2O)c(=O)n1	0
Cc1ccc(-n2nc(C(C)(C)C)cc2NC(=O)Nc2ccc(OCCN3CCOCC3)c3ccccc23)cc1	0
Nc1ncnc2c1nc(N)n2[C@@H]1O[C@H](CO)[C@@H](O)[C@H]1O	11.2
CC(C)(C)C[C@@H]1N[C@@H](C(=O)N[C@H]2CC[C@H](O)CC2)[C@H](c2cccc(Cl)c2F)[C@]12C(=O)Nc1cc(Cl)ccc12	0
NC(=S)N/N=C/c1ncccc1N	0
CNS(=O)(=O)Nc1nccc(Cc2c(C)c3ccc(Oc4ncccn4)cc3oc2=O)c1F	0

###

- System: DLD1 NRF2-WT
- assayComment: drug sensitivity score (DSS) cytotoxicity (DSS score); higher = more toxic; extreme values may be limits of the assay
- testConditions: 72 h; CellTox Green cytotoxicity
Items are presented alongside their recorded drug sensitivity score.
observedProperty: drug sensitivity score

compound	observedProperty	readoutNumber
CN(C)CCCOc1ccc(-c2ccc3ncc4c(c3c2)n(C2CCOCC2)c(=O)n4C)cn1	drug sensitivity score	0
COc1cc2ncnc(Nc3ccc(F)c(Cl)c3)c2cc1OCCCN1CCOCC1	drug sensitivity score	0
Cn1ncc(Cl)c1-c1cc(C(=O)N[C@H](CN)Cc2ccc(F)c(F)c2)oc1Cl	drug sensitivity score	0
CC(C)[C@H]1C(=O)N[C@@H](CCCNC(=N)N)C(=O)NCC(=O)N[C@@H](CC(=O)O)C(=O)N[C@H](Cc2ccccc2)C(=O)N1C [Cilengitide]	drug sensitivity score	0
COc1nc(N)nc2c1ncn2[C@@H]1O[C@H](CO)[C@@H](O)[C@@H]1O	drug sensitivity score	0
C[C@H]1O[C@@H](O[C@H]2[C@@H](O)C[C@H](O[C@H]3[C@@H](O)C[C@H](O[C@H]4CC[C@@]5(C)[C@H](CC[C@@H]6[C@@H]5C[C@@H](O)[C@]5(C)[C@@H](C7=CC(=O)OC7)CC[C@]65O)C4)O[C@@H]3C)O[C@@H]2C)C[C@H](O)[C@@H]1O	drug sensitivity score	4.3

Measured values drawn from the supplement of paper PMC7600603 for this set.
